System: WPMY1-ACTB-RAB5A
Protocol text: phenotypically active (imaging signature differs from DMSO and reproducible) at any of 0.3-9 uM (binary (1 = active, 0 = inactive)); higher = active
Experimental setup: treatment time: 24 h
Where a name gives a salt, the structure may show the parent alone.
Measured parameter: phenotypically active
The response must contain the number and no unit.

# phenotypically active lookup, item O=C(CCc1ccc(O)cc1)c1c(O)cc(O)cc1O[C@@H]1O[C@H](CO)[C@@H](O)[C@H](O)[C@H]1O
0

# phenotypically active lookup, item CN1CCN([C@H]2CC[C@H](n3cc(-c4ccc(Oc5ccccc5)cc4)c4c(N)ncnc43)CC2)CC1
1

# phenotypically active lookup, item N#Cc1c(C2CCNCC2)cc(-c2c(O)cccc2OCC2CC2)nc1N
1

# phenotypically active lookup, item CCc1ccc(CCOc2ccc(CC3SC(=O)NC3=O)cc2)nc1 (stereo unspecified) [Pioglitazone hydrochloride]
0

# phenotypically active lookup, item O=C(NOC[C@H](O)CO)c1ccc(F)c(F)c1Nc1ccc(I)cc1F
1

# phenotypically active lookup, item O=C(/C=C\c1ccc(O)c(O)c1)O[C@H]1C[C@](OC(=O)/C=C/c2ccc(O)c(O)c2)(C(=O)O)C[C@H](O)[C@H]1O
0

# phenotypically active lookup, item CC1CCC(C(C)C)C(O)C1 (stereo unspecified)
0

# phenotypically active lookup, item Clc1ccc(C(c2ccc(Cl)cc2)[n+]2ccn(CC(OCc3ccc(Cl)cc3Cl)c3ccc(Cl)cc3Cl)c2)cc1 (stereo unspecified) [Calmidazolium chloride]
0

# phenotypically active lookup, item CN1CCN(C(=O)CN[C@H]2C[C@@H]2c2ccc(OCc3ccccc3)cc2)CC1 [RN 1 dihydrochloride]
1

# phenotypically active lookup, item CNNCc1ccc(C(=O)NC(C)C)cc1
0

# phenotypically active lookup, item CC(C)C[C@H](NC(=O)OCC1c2ccccc2-c2ccccc21)C(=O)O
1

# phenotypically active lookup, item Cc1nc(NC(=O)N2CCC[C@H]2C(N)=O)sc1-c1csc(C(C)(C)C)n1
0

# phenotypically active lookup, item CC(C)N(CCCNC(=O)Nc1ccc(C(C)(C)C)cc1)C[C@H]1O[C@@H](n2ccc3c(N)ncnc32)[C@H](O)[C@@H]1O
0

# phenotypically active lookup, item CCCC(=O)Nc1ncnc2c1ncn2[C@@H]1O[C@@H]2COP(=O)(O)O[C@H]2[C@H]1OC(=O)CCC [Dibutyryl-cAMP, sodium salt]
0

# phenotypically active lookup, item CC(C)N(CCC(=O)c1ccc2ccccc2c1)Cc1ccccc1
0

# phenotypically active lookup, item CCCCCCCCCCCCCCCC[n+]1ccn(Cc2ccccc2)c1C
1

# phenotypically active lookup, item CCOc1cc(N2CCC(O)CC2)ccc1Nc1ncc2c(n1)N(C)c1ccccc1C(=O)N2C
1

# phenotypically active lookup, item C[C@H](N[C@@H](CCc1ccccc1)C(=O)O)C(=O)N1CCC[C@H]1C(=O)O
0

# phenotypically active lookup, item Nc1ccc(C(=O)O)c(O)c1 [aminosalicylate]
0

# phenotypically active lookup, item Cc1ccc2nc(NCCN)c3ncc(C)n3c2c1
1

# phenotypically active lookup, item C[C@@H](Oc1cc(-c2cnn(C3CCNCC3)c2)cnc1N)c1c(Cl)ccc(F)c1Cl
1

# phenotypically active lookup, item Cc1nc(=O)c2c([nH]1)CCSC2
0

# phenotypically active lookup, item CC(C)[N+](C)(CCOC(=O)C1c2ccccc2Oc2ccccc21)C(C)C
0

# phenotypically active lookup, item O=S(=O)(c1cccc2c(O)nccc12)N1CCCNCC1 [HA 1100 hydrochloride]
1

# phenotypically active lookup, item CCOC(=O)[C@H](CCc1ccccc1)N[C@H]1CCc2ccccc2N(CC(=O)O)C1=O
0

# phenotypically active lookup, item CC/C(=C(\CC)c1ccc(O)c(CN(CC)CC)c1)c1ccc(O)c(CN(CC)CC)c1
1
